Tested on: MDA-MB-435 melanoma
Experiment: NCI-60 one-dose screen, 48 h
Conditions: 10 µM
Method: Growth inhibition of the MDA-MB-435 human Melanoma tumor cell line is measured as a screen for anti-cancer activity. Cells are grown in 96 well plates and exposed to the test compound for 48 hours. Compounds are tested at a single concentration, which is 10^-5 M for most compounds. The reported endpoint is percent growth (GI% or GIPRCNT), where numbers from 0 - 100% represent growth inhibition, and numbers from -100% - 0 represent cell death. […]
About 83,000 compounds went through this panel and 20% of them were active in at least one assay; those are over-represented in the sample as a whole. Calls of active or inactive are those of the source. The calls were made as follows: active = growth percent below 10; inactive = the rest.
The reply should name one outcome from active, inactive

Would you please look over these solved cases?
CC(C)(C)c1cc(Br)cc(C(C)(C)C)c1O ... inactive
Nc1ncn(C2OC(CO)C(O)C2O)c(=O)n1 (configuration not stated) ... active
CN(Cc1ccccc1)Cc1ccc([N+](=O)[O-])cc1I ... inactive
COc1ccc(NC(=O)Cc2nc3nc4sc(C)c(C)c4c(=O)n3[nH]2)cc1 ... inactive
Nc1c(C(=O)Nc2ccccc2)sc2nc3c(cc12)C(O)CCC3 (configuration not stated) ... active

Fill in: this test's call for CCCCCCCCCCCCCC[n+]1ccc(C(N)=O)cc1 is ___
active

In this assay, the call recorded for CN(C)CCCn1c(=O)c2ccccc2c2cnc3[nH]ccc3c21 was what?
inactive

For this molecule, state the assay outcome: CC(=O)N1C/C(=C/c2ccc(Cl)cc2)C(=O)/C(=C/c2ccc(Cl)cc2)C1
active

Test call, this molecule: COc1cccc(-c2cc(-c3cccc(NS(C)(=O)=O)c3)nc(N)c2C#N)c1O
active

Name the outcome recorded for COc1ccc(Cn2c(C(N)=O)cc3c2-c2nc(N)ncc2CCC3)cc1 in the assay.
inactive

// return assay outcome for CCOC(=O)N/N=C\C(C)=N\NC(=O)OCC
inactive

---

Test system: HOP-62 NSCLC
Assay: NCI-60 one-dose screen, 48 h (100 = growth as untreated, 0 = no growth, -100 = all killed)
Details: 10 µM
This is part of a sample that, as a whole, favours compounds with a hit. Of some 83,000 tested, about 20% had one in any assay.
Attribute: growth
Could you give me the number in %? Just the number is fine.

Would you please look over these solved cases?
OCC1OC(n2cnc3c(N/N=C\c4ccccn4)ncnc32)C(O)C1O (stereo not given) ... 10
COc1cc(-c2cc(/C=C/C(=O)c3ccc4c(c3)OCO4)[nH]n2)cc(OC)c1OC ... 48.7
COc1ccc(-c2cc(-c3cccc(NS(C)(=O)=O)c3)nc(N)c2C#N)cc1 ... 52.3
Clc1ccc(Nc2ccnc(NCCNc3ccnc4cc(Cl)ccc34)n2)cc1 ... 66.7

Now for a further molecule.
Name the recorded growth of the item CC[C@H]1CCC/C=C/[C@@H]2C[C@H](O)C[C@H]2[C@H](O)/C=C/C(=O)O1 in your answer.
25.2

---

System: MCF7 breast
Assay: NCI-60 one-dose screen, 48 h (100 = growth as untreated, 0 = no growth, -100 = all killed)
Details: 10 µM
This is part of a sample that, as a whole, favours compounds with a hit. Of some 83,000 tested, about 20% had one in any assay.
Here the recorded growth is given for each entry.
Field format: number, assumed %, no unit text.

Sample records with growth:
COc1ccc(OC)c(/C=C/c2nc(SCc3ccccc3)n(-c3ccc(Cl)cc3)n2)c1 ... 52.9
CC1=C(N2CCOCC2)C(N2CCOCC2)=C(C)C(=O)C1=O ... 92.5
O=[N+]([O-])c1ccc(Oc2cc(Cl)c(Cl)cc2Cl)c(C(F)(F)F)c1 ... 97.9
O=C(CC(C(=O)c1ccccc1)N1CCOCC1)c1ccccc1 (stereo not given) ... 43.4

Next, consider the following molecule.
Look up and report measured growth for this entry: COc1cc(-c2nn3c(/C=C4/C(=O)Nc5ccccc54)c(-c4ccc(C)cc4)nc3s2)cc(OC)c1OC
39.4

---

Tested on: 786-0 renal
Test: NCI-60 one-dose screen, 48 h
Conditions: 10 µM
This is part of a sample that, as a whole, favours compounds with a hit. Of some 83,000 tested, about 20% had one in any assay. Active and inactive are the calls of the source. The calls were made as follows: active = growth percent below 10; inactive = the rest.
Use one of these outcomes when replying: active, inactive

// known answers, use as guide
COc1cc(-c2cc(/C=C3\C(=O)Nc4ccccc43)[nH]n2)cc(OC)c1OC ... inactive
CSc1nn(-c2ccccc2)c2ncnc(Oc3ccc(C)cc3)c12 ... inactive
CCCCCCCCCCCCCCCCN(C(C)c1ccccc1)S(=O)(=O)c1ccc(OC)c(N)c1 (stereo not given) ... inactive
COc1ccc2c(c1)sc1nc(-c3ccccc3)c(-c3cccnc3)n12 ... inactive
CCOC(=O)C(CSC(c1ccccc1)(c1ccccc1)c1ccccc1)NC(=O)C(CSC(c1ccccc1)(c1ccccc1)c1ccccc1)NC(c1ccccc1)(c1ccccc1)c1ccccc1 (stereo not given) ... inactive
Cc1cc(N(CCCNc2ccnc3cc(Cl)ccc23)Cc2ccc3c(c2)OCO3)nc(N2CCOCC2)n1 ... active
CCCC(F)C(=O)O (stereo not given) ... inactive
COc1ccc(-c2nc3ncccn3c2-c2nnc(-c3ccc(F)cc3)o2)cc1 ... inactive

Assay result, entry COc1ccc(Cn2c(C(N)=O)cc3c2-c2nc(N)ncc2CCC3)cc1 — outcome?
inactive

What was the test verdict on COc1ccc(-c2cc(-c3cccc(NS(C)(=O)=O)c3)nc(N)c2C#N)cc1 ?
inactive

I would be grateful if you could indicate the recorded call for O=C(Nc1ccc(CN2CCc3nc4cc(O)c(O)cc4cc32)cc1)c1ccc(Cl)c(Cl)c1 .
inactive

Field: outcome | Entry: CC(C)=CCc1cc(O)cc2c1OC(C=C(C)C)C1=C2C(=O)C2=C(C1=O)S(=O)(=O)CCN2 (stereo not given)
inactive

---

System: SN12C renal
Experiment: NCI-60 one-dose screen, 48 h (100 = growth as untreated, 0 = no growth, -100 = all killed)
Conditions: 10 µM
Compounds without any hit were thinned out: in the full panel of roughly 83,000, 20% have a hit.
outcomeMeasure: growth (%)
// note: answer is a bare numeric in %

Past entries and their recorded results:
O=C(O)CC(Cl)C(Cl)CC(=O)O (centres undefined) ... 102
O=C1NC(=O)N(Cc2ccccc2)CC1Br (centres undefined) ... 56.3

# input for lookup
Provide growth, system SN12C renal, entry FC(F)(F)c1ccc(-c2cnc(Cl)nc2N2CCC3(CC2)OCCO3)cc1
103

---

Test system: SW-620 colon
Test: NCI-60 one-dose screen, 48 h
Settings: 10 µM
Procedure: Growth inhibition of the SW-620 human tumor cell line is measured as a screen for anti-cancer activity. Cells are grown in 96 well plates and exposed to the test compound for 48 hours. Compounds are tested at a single concentration, which is 10^-5 M for most compounds. The reported endpoint is percent growth (GI% or GIPRCNT), where numbers from 0 - 100% represent growth inhibition, and numbers from -100% - 0 represent cell death. For example, a value of 40 represents 60% growth inhibition. […]
This is part of a sample that, as a whole, favours compounds with a hit. Of some 83,000 tested, about 20% had one in any assay. Activity calls are given as the source filed them. The calls were made as follows: active = growth percent below 10; inactive = the rest.
# output must be one of class 1 = active, class 0 = inactive

Worked examples, 4 compounds total:
COc1ccc(-c2nnc(-c3c(-c4ccccc4)nc4ncccn34)o2)cc1OC ... class 0
CCCCCCCCCCCCCCCCCC(=O)OCCCCCCC ... class 0
COc1ccc(-c2ccc3cc(C(=O)Nc4ccc(O)c(C(=O)/C=C/c5cc(OC)c(OC)c(OC)c5)c4)ccc3c2)cc1 ... class 0
COc1cc(Nc2ccnc(NCCNc3ccnc4cc(Cl)ccc34)n2)cc(OC)c1 ... class 0

Dear colleague, could you share the recorded outcome for Cc1ccc(NC(=O)CSc2nc3ccccc3c(=O)n2CCc2ccccc2)c(C(=O)O)c1 when you have a moment?
class 0

Assay result, entry CC(C)(C)NC/C(=C\c1ccccc1)C(=O)c1ccccc1 — outcome?
class 1

---

System: ACHN renal
Assay: NCI-60 one-dose screen, 48 h (100 = growth as untreated, 0 = no growth, -100 = all killed)
Details: 10 µM
About 83,000 compounds went through this panel and 20% of them were active in at least one assay; those are over-represented in the sample as a whole. Activity calls are given as the source filed them. The calls were made as follows: active = growth percent below 10; inactive = the rest.
outcomeMeasure: growth

// solved cases for growth follow
OCC1OC(n2cnc3c(N/N=C\c4ccccn4)ncnc32)C(O)C1O (centres undefined) ... 11.8% (inactive)
O=C(Nc1cccc(-n2cc(-c3ccncc3)c(-c3ccc(O)c(Cl)c3)n2)c1)Nc1cccc(C(F)(F)F)c1 ... 8.15% (active)
CC(C)=NNc1ncnc2c1ncn2C1OC(CO)C(O)C1O (centres undefined) ... 12.3% (inactive)
COC(=O)[C@@H]1[C@H](O)[C@H](C)[C@H](O)[C@@](C)(O)/C=C\C=C(C)C(=O)Nc2c(C)c(OC(C)=O)c3c(c2O)C(=O)C(C)=C2OCOC(=C23)C(C)=C[C@@](C)(O)[C@H](O)[C@@H](C)[C@H]1OC(C)=O ... 110% (inactive)
Cc1cc2ccccc2nc1-c1ccccc1F ... 112% (inactive)

Name the recorded growth of the molecule listed here: CCCCCCCCCCCC[n+]1ccc(C(N)=O)cc1
87.5% (inactive)

Fill in growth for record COc1ccc(Cl)cc1-n1nnc(-c2nc3ccccc3[nH]2)c1N
51.4% (inactive)

Answer with the recorded growth for the molecule listed here: Cc1ccc(-c2nc(/C=C3/C(=O)N(C)c4ccc(F)cc43)c3ccccn23)cc1
88.5% (inactive)

Report growth, nothing else, for this molecule: CCCCN(CCCC)CCCCCCCCC(O)c1cc2ccccc2c2ccccc12 (centres undefined)
59.9% (inactive)
